All figures here come from PubChem BioAssay (NCI).

test system: HCT-15 colon; assay: NCI-60 one-dose screen, 48 h; conditions: 10 µM unless noted
The panel holds about 83,000 compounds, 20% with a hit somewhere; the sample as a whole holds those more often. Active and inactive are the calls of the source. Rule for the calls: active = growth percent below 10; inactive = the rest.
The reply should name one outcome from class 1 (active), class 0 (inactive)

{"molecule": "CCCCCCCCCCCCCCCCSC(=NCC)NCC", "answerLabel": "class 1"}
{"molecule": "N=C(N)Sc1cccc[n+]1[O-]", "answerLabel": "class 0"}

Request: GET /call?item= O=C1Nc2ccc(Br)cc2C1=O returns the recorded outcome of this test.
Result: class 0

Request: GET /call?item= N#CC1c2ccccc2C=CN1C(=O)CCCl (centres undefined) returns the recorded outcome of this test.
Result: class 0

Request: GET /call?item= CN(C)c1ccc(/C=C/c2ccnc3ccccc23)cc1 returns the recorded outcome of this test.
Result: class 0

Request: GET /call?item= CN1CCC(c2ccccc2)(c2ccccc2)C(=O)C1 returns the recorded outcome of this test.
Result: class 0

Request: GET /call?item= O=C/C=C/c1ccc([N+](=O)[O-])cc1 returns the recorded outcome of this test.
Result: class 0

Request: GET /call?item= Cc1nnc(N/N=C/c2ccc([N+](=O)[O-])o2)[nH]c1=O returns the recorded outcome of this test.
Result: class 0

Request: GET /call?item= N#CC(I)CS(=O)(=O)c1ccccc1 (centres undefined) returns the recorded outcome of this test.
Result: class 0
